The entries below come with measured log10 of EC50 values attached.
- target.desc: ERR1 (also known as ERR-α or ERR-1) (Homo sapiens)
- Sequence (P11474 193-421 limits assumed, species assumed): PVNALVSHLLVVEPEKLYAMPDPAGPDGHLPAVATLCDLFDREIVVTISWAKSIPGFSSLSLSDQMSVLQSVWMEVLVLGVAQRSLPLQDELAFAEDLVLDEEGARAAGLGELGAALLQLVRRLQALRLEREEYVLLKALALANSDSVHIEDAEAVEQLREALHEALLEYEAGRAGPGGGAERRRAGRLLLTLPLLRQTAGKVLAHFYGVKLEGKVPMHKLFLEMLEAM
- assay.summary: TR-FRET assay (disruption of co-activator peptide binding to ERR1 LBD)
- condition: 6 nM 6His-ERR1LBD, 6 nM GST-SRC-2 peptide; average of 3 independent experiments
reported.endpoint: log10 of EC50 (log10 of the value in nM)

compound: O=C(O)C1CCC(N2C(=O)S/C(=C\c3ccc4c(cnn4Cc4ccc(Cl)cc4C(F)(F)F)c3)C2=O)CC1 (stereo not shown) [Compound 73]
log10 of EC50: 1.08
--
compound: COc1ccc(Cn2ncc3cc(/C=C4\SC(=O)N(CCN5CCC(O)CC5)C4=O)ccc32)c(C(F)(F)F)c1 [Compound 15]
log10 of EC50: 1.79
--
compound: O=C1S/C(=C\c2ccc3c(ccn3Cc3ccc(Cl)cc3C(F)(F)F)c2)C(=O)N1CCN1CCOCC1 [Compound 254]
log10 of EC50: 2.51
--
compound: O=C(O)C(Cc1ccccn1)N1C(=O)S/C(=C\c2ccc3c(cnn3Cc3ccc(Cl)cc3C(F)(F)F)c2)C1=O (stereo not shown) [Compound 216]
log10 of EC50: 1.52
--
compound: N[C@H]1CC[C@H](N2C(=O)S/C(=C\c3ccc4c(cnn4Cc4ccc(Cl)cc4C(F)(F)F)c3)C2=O)CC1 [Compound 176]
log10 of EC50: 1.76
--
compound: Cn1cnc(CN2C(=O)S/C(=C\c3ccc4c(cnn4Cc4ccc(Cl)cc4C(F)(F)F)c3)C2=O)c1 [Compound 402]
log10 of EC50: 1.68
--
compound: O=C1S/C(=C\c2ccc3c(cnn3Cc3ccc(C(F)(F)F)cc3C(F)(F)F)c2)C(=O)N1CCn1cncn1 [Compound 66]
log10 of EC50: 1.20
--
compound: NC1(CN2C(=O)S/C(=C\c3ccc4c(cnn4Cc4ccc(C(F)(F)F)cc4C(F)(F)F)c3)C2=O)CCOCC1 [Compound 310]
log10 of EC50: 1.93
--
compound: Cc1nn(Cc2ccc(Cl)cc2C(F)(F)F)c2ccc(/C=C3\SC(=O)N(CC(=O)NS(=O)(=O)N4CCCC4)C3=O)cc12 [Compound 40]
log10 of EC50: 1.73
--
compound: O=C1S/C(=C\c2ccc3c(cnn3Cc3ccc(Cl)cc3C(F)(F)F)c2)C(=O)N1C[C@@H](O)CN1CCCC1 [Compound 292]
log10 of EC50: 1.69
--
compound: O=C1S/C(=C\c2ccc3c(cnn3Cc3ccc(Cl)cc3C(F)(F)F)c2)C(=O)N1[C@@H]1CN2CCC1CC2 [Compound 132]
log10 of EC50: 1.26
--
compound: O=C1S/C(=C\c2ccc3c(cnn3Cc3ccc(Cl)cc3C(F)(F)F)c2)C(=O)N1CCN1CCCC(F)C1 (stereo not shown) [Compound 74]
log10 of EC50: 2.04
--
compound: CCN1CCC(N2C(=O)S/C(=C\c3ccc4c(cnn4Cc4ccc(OC)cc4C(F)(F)F)c3)C2=O)CC1 [Compound 28]
log10 of EC50: 1.15
--
compound: CS(=O)(=O)NN1C(=O)S/C(=C\c2cc3cnn(Cc4ccc(Cl)cc4C(F)(F)F)c3cc2F)C1=O [Compound 371]
log10 of EC50: 0.95
--
compound: O=C1S/C(=C\c2ccc3c(cnn3Cc3ccc(Cl)cc3C(F)(F)F)c2)C(=O)N1C1(C(=O)O)CC1 [Compound 89]
log10 of EC50: 1.96
--
compound: CC(=O)NS(=O)(=O)CN1C(=O)S/C(=C\c2ccc3c(cnn3Cc3ccc(F)cc3C(F)(F)F)c2)C1=O [Compound 64]
log10 of EC50: 2.69
--
compound: O=C1S/C(=C\c2ccc3c(cnn3Cc3ccc(Cl)cc3C(F)(F)F)c2)C(=O)N1CCN1CCNCC1 [Compound 163]
log10 of EC50: 1.58
--
compound: COCCN1CCC(N2C(=O)S/C(=C\c3ccc4c(cnn4Cc4ccc(Cl)cc4C(F)(F)F)c3)C2=O)CC1 [Compound 147]
log10 of EC50: 1.56
--
compound: CN(C)CCCN1C(=O)S/C(=C\c2ccc3c(ccn3Cc3ccc(Cl)cc3C(F)(F)F)c2)C1=O [Compound 244]
log10 of EC50: 1.70
--
compound: O=C1S/C(=C\c2ccc3c(cnn3Cc3ccc(Cl)cc3C(F)(F)F)c2)C(=O)N1Cc1c[nH]cn1 [Compound 405]
log10 of EC50: 1.68
--
compound: O=C(O)CN1C(=O)S/C(=C\c2ccc3c(c2)c(Cl)nn3Cc2ccc(Cl)cc2C(F)(F)F)C1=O [Compound 287]
log10 of EC50: 1.34
--
compound: CN1CCC[C@H]1CN1C(=O)S/C(=C\c2ccc3c(c2)c(Cl)nn3Cc2ccc(Cl)cc2C(F)(F)F)C1=O [Compound 301]
log10 of EC50: 1.18
--
compound: O=C1S/C(=C\c2ccc3c(cnn3Cc3ccc(Cl)cc3C(F)(F)F)c2)C(=O)N1C[C@H]1CCCNC1 [Compound 96]
log10 of EC50: 1.83
--
compound: O=C1S/C(=C\c2ccc3c(c2)nnn3Cc2ccc(Cl)cc2C(F)(F)F)C(=O)N1Cc1nc[nH]n1 [Compound 264]
log10 of EC50: 1.20
--
compound: O=C1S/C(=C\c2ccc3c(cnn3Cc3ccc(Cl)cc3C(F)(F)F)c2)C(=O)N1C[C@H](O)CNCCF [Compound 295]
log10 of EC50: 1.82
--
compound: CN1CC[C@@H](N2C(=O)S/C(=C\c3ccc4c(cnn4Cc4ccc(Cl)cc4C(F)(F)F)c3)C2=O)C1 [Compound 144]
log10 of EC50: 1.49
--
compound: CC(C)N1CC[C@@H](N2C(=O)S/C(=C\c3ccc4c(cnn4Cc4ccc(C(F)(F)F)cc4C(F)(F)F)c3)C2=O)[C@H](F)C1 (relative stereo) [Compound 331]
log10 of EC50: 2.38
--
compound: O=C1S/C(=C\c2ccc3c(cnn3[C@H]3CCc4cc(Cl)ccc43)c2)C(=O)N1CCN1CCCC1 [Compound 172]
log10 of EC50: 2.48

Source listed as patent US8796256B2.
